target_or_test_system: ROCK2 (Homo sapiens, UniProt O75116)
Construct: purchased Invitrogen PV3759
Sequence (O75116 5-554 limits assumed): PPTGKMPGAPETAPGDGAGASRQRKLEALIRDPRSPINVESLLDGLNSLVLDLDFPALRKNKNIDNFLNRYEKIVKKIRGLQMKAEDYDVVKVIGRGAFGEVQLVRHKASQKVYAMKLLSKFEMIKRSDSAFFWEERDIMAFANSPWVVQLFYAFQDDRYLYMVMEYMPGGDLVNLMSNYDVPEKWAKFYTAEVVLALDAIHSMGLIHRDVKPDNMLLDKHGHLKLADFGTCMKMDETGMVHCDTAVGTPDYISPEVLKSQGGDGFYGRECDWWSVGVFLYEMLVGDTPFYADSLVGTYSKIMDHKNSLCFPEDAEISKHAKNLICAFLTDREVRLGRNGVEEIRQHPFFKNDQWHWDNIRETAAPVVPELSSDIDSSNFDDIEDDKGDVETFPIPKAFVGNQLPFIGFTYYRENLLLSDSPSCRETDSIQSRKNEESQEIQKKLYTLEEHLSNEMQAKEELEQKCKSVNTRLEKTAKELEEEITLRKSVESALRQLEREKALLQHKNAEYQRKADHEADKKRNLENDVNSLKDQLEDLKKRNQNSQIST
assay: Kinase IC50 assay, HTRF kinEASE STK S2 kit, ROCK2
Format: biochemical
conditions_used: ATP 1 μM, 2.5 ng/well enzyme, 120 min
reported_endpoint: IC50 (µM)
Write the number in µM without appending the unit.

Solved cases below.
Cn1c(C#Cc2ncc(C#N)c(Nc3ccc(-c4cn[nH]c4)cc3)n2)ccc1C(=O)N1CC(F)(F)C1    3.49
CC(C)c1cc(C(=O)N2CC(F)(F)C2)n(C)c1C#Cc1ncc(F)c(Nc2cc(F)c(-c3cn[nH]c3)cc2F)n1    0.0573
O=C(c1cccc(C#Cc2nccc(Nc3ccc(-c4cn[nH]c4)cc3)n2)c1)N1CC(F)(F)C1    2
Cc1cc(Nc2ccc(-c3cn[nH]c3)cc2)nc(C#Cc2ccc(C(=O)N3CC(F)(F)C3)n2C)n1    0.091

Specify IC50 for O=C(c1ccc(C#Cc2nccc(Nc3ccc(-c4cn[nH]c4)cc3)n2)n1C1CC1)N1CC(F)(F)C1 and stop.
0.118

Answer with the recorded IC50 of Cc1cc(C(=O)N2CC(F)(F)C2)n(C)c1C#Cc1nc(C)c(F)c(Nc2ccc(-c3cn[nH]c3)c(F)c2)n1 only.
0.0352

For the compound Cc1cc(C(=O)N2CC(F)(F)C2)n(C)c1C#Cc1nc2c(c(Nc3cc(F)c(-c4cn[nH]c4)c(F)c3)n1)COC2 , report IC50.
0.0089
